Test: Apparent permeability across apical to basolateral side in MDCK-MDR1 cells at 1 to 10 uM measured after 1 hrs by LC/MS/MS analysis
Format: ADME, cell-based, Canis lupus familiaris
Settings: dog, dose 1-10 µM
assay.metric: Papp A→B at 1 h, up to 10 µM (×10⁻⁶ cm/s)
Write it as a number; the unit ×10⁻⁶ cm/s goes unstated.

Sample answers from the record:
Which Papp A→B at 1 h, up to 10 µM reading was recorded for the compound `CSc1cc(C)n(C)c(=O)c1CN1CCc2c(Cl)cc(-c3c(C)noc3C)c(Cl)c2C1=O` ?
0.3

Which Papp A→B at 1 h, up to 10 µM reading was recorded for the compound `Cc1noc(C)c1-c1cc(Cl)c2c(c1Cl)C(=O)N(Cc1c(C(F)(F)F)cc(C)n(C)c1=O)CC2` ?
4.9

New cases:
Which Papp A→B at 1 h, up to 10 µM reading was recorded for the compound `CCc1cc(C)n(C)c(=O)c1CN1CCc2c(Cl)cc(-c3c(C)noc3C)c(Cl)c2C1=O` ?
11

Which Papp A→B at 1 h, up to 10 µM reading was recorded for the compound `CSc1cc(C)n(C)c(=O)c1CN1CCNc2c(Cl)cc(-c3c(C)noc3C)c(Cl)c2C1=O` ?
0.2

Which Papp A→B at 1 h, up to 10 µM reading was recorded for the compound `COc1cc(C)n(C)c(=O)c1CN1CCc2c(Cl)cc(-c3c(C)noc3C)c(Cl)c2C1=O` ?
1

Which Papp A→B at 1 h, up to 10 µM reading was recorded for the compound `Cc1cc(C)c(CN2CCc3c(Cl)cc(-c4c(C)noc4C)c(Cl)c3C2=O)c(=O)[nH]1` ?
3.7
